target: Human thrombin (Homo sapiens, UniProt P00734)
Structures can show the parent of a compound that is named as a salt.
assay-readout: IC50

[[record]]
compound = "CC(C)(C)OC(=O)N1CCCC1(C)c1cc(NCc2ccc(Cl)s2)n(C(=O)C(C)(C)CO)n1 (centres unmarked)"
assay_readout = "IC50"
result = "0.1 to 1 µM"

[[record]]
compound = "FC(F)(F)C(c1ccccn1)N1CCC(c2cc(NCc3ccc(Cl)s3)[nH]n2)CC1 (centres unmarked)"
assay_readout = "IC50"
result = "> 100 µM"

[[record]]
compound = "CC(C)(C)C(=O)n1nc(C2CCN(C(=O)N3CCOCC3)CC2)c(C#N)c1NCc1ccc(Cl)s1"
assay_readout = "IC50"
result = "< 0.1 µM"

[[record]]
compound = "Cc1c(C2CCN(C(=O)N3CCOCC3)CC2)n[nH]c1NCc1ccc(Cl)s1"
assay_readout = "IC50"
result = "10 to 100 µM"

[[record]]
compound = "CC1(C(=O)n2nc(C3(C)CCCNC3=O)cc2NCc2ccc(Cl)s2)CCOCC1 (centres unmarked)"
assay_readout = "IC50"
result = "1 to 10 µM"


Entry `COc1ccccc1C(=O)n1nc(C2CCN(C(=O)OC(C)(C)C)CC2)cc1NCc1ccc(Cl)s1` : reported IC50 = ?
< 0.1 µM

Entry Clc1ccc(CNc2cc(C3CCCNCC3)n[nH]2)s1 (centres unmarked) : reported IC50 = ?
> 100 µM

Entry O=C(C1CCCC1)n1nc(C2CCNCC2)cc1NCc1ccc(Cl)s1 [Entry 170, hydrochloride] : reported IC50 = ?
> 100 µM

Entry CC(C)(C)OC(=O)N1CCCC(c2cc(NCc3ccc(Cl)s3)[nH]n2)C1 (centres unmarked) : reported IC50 = ?
> 100 µM

Entry `O=S(=O)(N1CCOCC1)N1CCC(c2cc(N(Cc3ccc(Cl)s3)S(=O)(=O)N3CCOCC3)[nH]n2)CC1` : reported IC50 = ?
1 to 10 µM

Entry `CC(C)(C)OC(=O)N1CCC(C)(c2cc(NCc3ccc(Cl)s3)n(C(=O)C(C)(C)CO)n2)CC1` : reported IC50 = ?
< 0.1 µM

Entry CC1(c2cc(NCc3ccc(Cl)s3)n(C(=O)c3ccsc3)n2)CCNC1=O (centres unmarked) : reported IC50 = ?
0.1 to 1 µM

Entry `CN(C)S(=O)(=O)N1CCC(c2cc(NCc3ccc(Cl)s3)[nH]n2)CC1` : reported IC50 = ?
> 100 µM
